- tgt: T1, ENL (489-559), recombinant C-terminal domain of ENL (Homo sapiens (Human), UniProt Q03111)
- T1 sequence: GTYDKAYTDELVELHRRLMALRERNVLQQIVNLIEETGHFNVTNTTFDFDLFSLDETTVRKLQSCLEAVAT
- assay_protocol: competitive SPR; peptide pre-incubated with ENL (500 nM), over immobilised Mocr-DOT1L (826-1095)

{"columns": ["binder", "unit_of_measure", "value_relation_sign", "IC50"],
 "data": [
  ["Ac-LPISIPLSTA-NH2 [V874A, alanine mutated DOT1L 10mer peptide]", "µM", "=", 4.2],
  ["Ac-LPISAPLSTV-NH2 [I869A, alanine mutated DOT1L 10mer peptide]", "µM", ">", 200],
  ["Ac-LPISIPLATV-NH2 [S872A, alanine mutated DOT1L 10mer peptide]", "µM", "=", 2.8],
  ["Ac-LPISIPLSTVQPNKLP-NH2 [DOT1L 16 mer peptide, Ac-LPISIPLSTVQPNKLP-NH2 (a.a. 865-880)]", "µM", "=", 1.56],
  ["Ac-LAISIPLSTV-NH2 [P866A, alanine mutated DOT1L 10mer peptide]", "µM", "=", 6.5],
  ["Ac-LPISIPL-NH2 [DOT1L 7 mer peptide, Ac-LPISIPL-NH2 (865-871)]", "µM", "=", 7.3],
  ["Ac-LPISIALSTV-NH2 [P870A, alanine mutated DOT1L 10mer peptide]", "µM", "=", 11.6]
]}
